Target: Mek1 (Homo sapiens, UniProt Q02750)
Construct: purchased Millipore
Sequence (Q02750 whole entry, species assumed): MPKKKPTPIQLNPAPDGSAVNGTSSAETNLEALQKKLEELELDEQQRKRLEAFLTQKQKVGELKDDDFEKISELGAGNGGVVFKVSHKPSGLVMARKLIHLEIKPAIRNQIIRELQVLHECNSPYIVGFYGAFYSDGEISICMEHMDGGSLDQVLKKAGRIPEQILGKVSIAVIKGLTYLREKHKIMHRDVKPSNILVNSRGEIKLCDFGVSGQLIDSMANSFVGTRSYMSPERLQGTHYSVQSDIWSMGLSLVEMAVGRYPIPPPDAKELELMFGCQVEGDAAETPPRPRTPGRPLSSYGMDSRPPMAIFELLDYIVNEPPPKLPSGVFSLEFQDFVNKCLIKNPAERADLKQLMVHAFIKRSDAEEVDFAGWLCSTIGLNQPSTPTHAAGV
Test: Mek1 kinase assay (LANCE), enzymatic activity
Type: biochemical
Settings: Mek1 0.25 nM, 50 μM ATP, 2 nM inactive Erk1, 90 min at 23° C.
Measured IC50 of individual entries

Solved cases (5 shown):
{"smiles record": "Cn1c(Nc2ccc(I)cc2Cl)c(C(=O)NOCCO)c2occc2c1=O", "IC50": "< 100 nM"}
{"smiles record": "Cn1c(Nc2ccc(I)cc2F)c(C(=O)NCCCO)c2occc2c1=O", "IC50": "< 5000 nM"}
{"smiles record": "Cn1c(Nc2ccc(I)cc2F)c(C(=O)NOCCO)c2scnc2c1=O", "IC50": "< 5000 nM"}
{"smiles record": "Cc1coc2c(C(=O)NOCCO)c(Nc3ccc(I)cc3F)n(C)c(=O)c12", "IC50": "< 1000 nM"}
{"smiles record": "Cn1c(Nc2ccc(I)cc2F)c(C(=O)NOC[C@H](O)CO)c2occc2c1=O", "IC50": "< 100 nM"}

Request: Which IC50 is reported for this molecule? Cn1c(Nc2ccc(I)cc2F)c(C(=O)NOCCO)c2occc2c1=O
Response: < 100 nM

Request: Which IC50 is reported for this molecule? Cc1nc2c(=O)n(C)c(Nc3ccc(I)cc3F)c(C(=O)NOCCO)c2o1
Response: < 1000 nM

Request: Which IC50 is reported for this molecule? Cn1c(Nc2ccc(I)cc2F)c(C(=O)NOCCO)c2sccc2c1=O
Response: < 1000 nM

Request: Which IC50 is reported for this molecule? Cc1noc2c(C(=O)NOCCO)c(Nc3ccc(I)cc3F)n(C)c(=O)c12
Response: < 5000 nM

Request: Which IC50 is reported for this molecule? COc1c(C(=O)NOCCO)c(Nc2ccc(I)cc2F)n(C)c(=O)c1C
Response: < 100 nM

----------
Test system: MEK
Assay: Cell-based mechanism assay in A375 cell line, MEK inhibition detected by reduced ERK phosphorylation (AlphaScreen SureFire)
Conditions: A375 cell line (melanoma), phospho-ERK levels, compounds incubated 1 hour at 37° C.
measured attribute: IC50

{"smiles record": "Cn1c(Nc2ccc(I)cc2F)c(C(=O)NOC[C@H](O)CO)c2occc2c1=O", "endpoint result": "< 100 nM"}
{"smiles record": "COc1c(C(=O)NOCCO)c(Nc2ccc(I)cc2F)n(C)c(=O)c1C", "endpoint result": "< 100 nM"}
{"smiles record": "Cn1c(Nc2ccc(I)cc2F)c(C(=O)NOCCO)c2scnc2c1=O", "endpoint result": "< 5000 nM"}
{"smiles record": "Cn1c(Nc2ccc(I)cc2F)c(C(=O)NOCCO)c2occc2c1=O", "endpoint result": "< 100 nM"}

Now for the compound whose IC50 we want.
Request: Which IC50 is reported for this compound? Cc1coc2c(C(=O)NOCCO)c(Nc3ccc(I)cc3F)n(C)c(=O)c12
Response: < 100 nM
